From: paper PMC11602988

target entity: OCT1 WT (Homo sapiens, UniProt O15245)
procedure details: Concentration-dependent uptake kinetics, HEK293 cells overexpressing OCT1 WT
conditions: OCT1 WT; ratio of vmax over Km
measure: Clint

Check out these entries, answers already filled in.
{"columns": ["molecule", "target entity", "Clint"],
 "data": [
  ["CC(=O)OC(C)C[N+](C)(C)C (centres unmarked)", "OCT1 WT (Homo sapiens, UniProt O15245)", "14.1 ± 15.2 ml × g Protein^−1 × min^−1"],
  ["CC(CCc1ccc(O)cc1)NCCc1ccc(O)c(O)c1 (centres unmarked)", "OCT1 WT (Homo sapiens, UniProt O15245)", "3.03 ± 6.16 ml × g Protein^−1 × min^−1"],
  ["CN1CCN(CC(=O)N2c3ccccc3C(=O)Nc3cccnc32)CC1 [Pirenzepine]", "OCT1 WT (Homo sapiens, UniProt O15245)", "0.43 ± 0.85 ml × g Protein^−1 × min^−1"],
  ["CN(C)C(=N)N=C(N)N", "OCT1 WT (Homo sapiens, UniProt O15245)", "3.71 ± 2.82 ml × g Protein^−1 × min^−1"],
  ["CC(C)(C)NCC(O)COc1cccc2c1CCC(=O)N2 (centres unmarked)", "OCT1 WT (Homo sapiens, UniProt O15245)", "1.01 ± 1.41 ml × g Protein^−1 × min^−1"],
  ["COc1cc(CCN)cc(OC)c1OC", "OCT1 WT (Homo sapiens, UniProt O15245)", "4.84 ± 2.55 ml × g Protein^−1 × min^−1"],
  ["Cc1ncc(C[n+]2csc(CCO)c2C)c(N)n1", "OCT1 WT (Homo sapiens, UniProt O15245)", "7.51 ± 8.28 ml × g Protein^−1 × min^−1"],
  ["NC(N)=Nc1nc(CSCCC(N)=NS(N)(=O)=O)cs1", "OCT1 WT (Homo sapiens, UniProt O15245)", "45.8 ± 45.7 ml × g Protein^−1 × min^−1"],
  ["CN(C)CCc1c[nH]c2ccc(C[C@H]3COC(=O)N3)cc12", "OCT1 WT (Homo sapiens, UniProt O15245)", "21.6 ± 26.4 ml × g Protein^−1 × min^−1"],
  ["CCN1CCCC1CNC(=O)c1cc(S(N)(=O)=O)ccc1OC (centres unmarked) [Sulpiride]", "OCT1 WT (Homo sapiens, UniProt O15245)", "2.65 ± 3.09 ml × g Protein^−1 × min^−1"]
]}

Could you now consider this next molecule?
Which Clint value is on record for `CC(C)[N+](C)(CCOC(=O)C1c2ccccc2Oc2ccccc21)C(C)C` ?
224 ± 251 ml × g Protein^−1 × min^−1

====

Answer each item with its documented Mean_transport_ratio_Phe244Ala.
target entity: OCT1 Phe244Ala variant (Homo sapiens, UniProt O15245, F244A)
procedure details: Uptake screening (transport ratio over empty vector), HEK293 cells overexpressing OCT1 Phe244Ala variant
Format: cell-based
Parameters: expressed in transfected cells
Answers are plain numbers.

# count of solved cases: 3
{"columns": ["molecule", "observed measurement"],
 "data": [
  ["N=C(N)NC(=O)c1nc(Cl)c(N)nc1N [Amiloride]", 23.504],
  ["CN(C)CCc1c[nH]c2ccc(C[C@@H]3COC(=O)N3)cc12 [(R)-Zolmitriptan]", 13.515],
  ["CN(C)CCc1c[nH]c2ccc(C[C@H]3COC(=O)N3)cc12 [(S)-Zolmitriptan]", 8.091]
]}

For each entry beneath this line, provide reported Mean_transport_ratio_Phe244Ala.
1. CC[C@@H](CO)NCCN[C@@H](CC)CO [(R,R)-Ethambutol]
2. C[N+]1(C)[C@@H]2CC(OC(=O)C(O)(c3cccs3)c3cccs3)C[C@H]1[C@@H]1O[C@@H]12 (some centres unmarked)
3. CC[C@H](CO)NCCN[C@@H](CC)CO [(R,S)-Ethambutol]
4. COc1ccc2[nH]cc(CCN)c2c1
5. CCN[C@@H](C)Cc1cccc(C(F)(F)F)c1 [(S)-Fenfluramine]

[16.298, 35.339, 12.934, 1.602, 1.119]

Batch of 3 molecules: report Mean_transport_ratio_Phe244Ala for each.
1. CCC1(c2cccc(O)c2)CCCCN(C)C1 (centres unmarked)
2. CC[C@@H](CO)NCCN[C@@H](CC)CO [(S,S)-Ethambutol]
3. NC(=Nc1ccccc1)Nc1ccccc1

[1.571, 11.185, 1.952]

====

target entity: OCT1 Phe244Ala variant (Homo sapiens, UniProt O15245, F244A)
procedure details: Uptake screening (transport ratio over empty vector), HEK293 cells overexpressing OCT1 Phe244Ala variant
Format: cell-based
Design: expressed in transfected cells
conditions: uptake ratio over empty vector, HEK293 cells overexpressing OCT1 Phe244Ala
Please note: Mean_transport_ratio_Phe244Ala exactly at 6 is NOT MET. Only values below 6 get MET.

Below, 4 compounds whose answers are already recorded.
{"columns": ["compound", "category label"],
 "data": [
  ["Cc1cc(N)c(OC(C)C)cc1C1CCNCC1", "NOT MET"],
  ["CC(=O)OC(C)C[N+](C)(C)C (centres unmarked)", "NOT MET"],
  ["CNCc1ccc(-c2[nH]c3cc(F)cc4c3c2CCNC4=O)cc1", "MET"],
  ["CC(C)NCC(O)c1ccc(NS(C)(=O)=O)cc1 (centres unmarked)", "MET"]
]}

Now consider a different compound.
Please indicate whether the reported Mean_transport_ratio_Phe244Ala of `c1c2c(cc3c1OCO3)-c1cc3ccc4c(c3c[n+]1CC2)OCO4` is strictly below 6.
NOT MET

====

target entity: OCT1 Phe244Ala variant (Homo sapiens, UniProt O15245, F244A)
procedure details: Uptake screening (transport ratio over empty vector), HEK293 cells overexpressing OCT1 Phe244Ala variant;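 note: stably transfected HEK293 cells, intracellular substrate quantified by HPLC-tandem mass spectrometry in cell lysates, uptake in HBSS+ buffer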
Assay type: cell-based
Design: expressed in transfected cells
conditions: uptake ratio of OCT1 Phe244Ala-overexpressing HEK293 cells over empty vector
measure: Mean_transport_ratio_Phe244Ala
Give bare numbers.

{"columns": ["compound", "Mean_transport_ratio_Phe244Ala"],
 "data": [
  ["CNCC(O)c1ccc(O)c(OC)c1 (stereo not shown)", 3.351],
  ["CCC(NC(C)C)C(O)c1ccc(O)c(O)c1 (stereo not shown)", 16.355]
]}

For every item in the list below, what is its measured Mean_transport_ratio_Phe244Ala?
1. CNC1(C)C2CCC(C2)C1(C)C (stereo not shown)
2. CNCCc1ccc(O)cc1

1. 0.581
2. 1.688

====

Exercise: for every item that follows, state its recorded relative_Phe244Ala_uptake_in%.
target entity: OCT1 Phe244Ala variant (Homo sapiens, UniProt O15245, F244A)
Sequence (O15245 1-554 F244A): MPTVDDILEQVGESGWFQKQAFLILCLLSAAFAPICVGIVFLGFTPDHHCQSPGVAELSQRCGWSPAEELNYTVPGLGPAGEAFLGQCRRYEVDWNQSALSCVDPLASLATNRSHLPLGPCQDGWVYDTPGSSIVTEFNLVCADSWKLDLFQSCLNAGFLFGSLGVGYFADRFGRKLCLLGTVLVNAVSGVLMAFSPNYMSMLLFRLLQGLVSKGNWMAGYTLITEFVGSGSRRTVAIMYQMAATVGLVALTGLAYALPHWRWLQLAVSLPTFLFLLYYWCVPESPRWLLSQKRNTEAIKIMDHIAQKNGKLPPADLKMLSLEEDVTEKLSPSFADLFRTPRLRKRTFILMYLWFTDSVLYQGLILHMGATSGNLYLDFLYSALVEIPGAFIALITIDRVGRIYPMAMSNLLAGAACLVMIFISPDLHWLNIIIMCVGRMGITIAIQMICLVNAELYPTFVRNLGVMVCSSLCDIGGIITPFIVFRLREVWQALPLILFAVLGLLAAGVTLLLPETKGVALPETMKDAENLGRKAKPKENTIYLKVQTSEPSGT
procedure details: Uptake screening (transport ratio over empty vector), HEK293 cells overexpressing OCT1 Phe244Ala variant
Format: cell-based
Design: expressed in transfected cells
conditions: Phe244Ala uptake relative to WT
Numbers only, in %.

Illustrative cases are given below, each with its answer.
{"columns": ["molecule", "measure", "observed measurement"],
 "data": [
  ["CNCc1ccc(CSCCNC(=C[N+](=O)[O-])NC)o1", "relative_Phe244Ala_uptake_in%", 88.566],
  ["CCCCNC(=N)NC(=N)N", "relative_Phe244Ala_uptake_in%", 42.469],
  ["CC(=O)OC(C)C[N+](C)(C)C (centres unmarked)", "relative_Phe244Ala_uptake_in%", 14.392],
  ["CC[N+](CC)(CC)CC(=O)Nc1c(C)cccc1C", "relative_Phe244Ala_uptake_in%", 129.074]
]}

Moving on to another molecule below.
Consider the molecule CC(CCc1ccc(O)cc1)NCCc1ccc(O)c(O)c1 (centres unmarked) and give its measured relative_Phe244Ala_uptake_in%.
249.567
